Parameter SPOT signal as a fraction of Bim BH3's signal on the same receptor and array: see the listing below.
TARGET_SYSTEM: T1, Mcl-1, Q07820
T1 chain: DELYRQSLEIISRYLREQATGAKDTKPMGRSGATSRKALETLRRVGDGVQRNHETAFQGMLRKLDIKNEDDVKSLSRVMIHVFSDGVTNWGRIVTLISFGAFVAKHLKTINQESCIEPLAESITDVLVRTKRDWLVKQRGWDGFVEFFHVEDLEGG
ASSAY_EXPLANATION: peptide SPOT array, c-Myc-tagged receptor at 1 uM or 100 nM, anti-c-Myc-Cy3
Lab note: write the figure by itself, no unit.

{"BINDER": "ERMKGTFCIALEKFSKAIYKYVNHWR [HEATR7B2]", "MEAS_VALUE": 0.37}
{"BINDER": "MQTLSELAKSDQDMADRCLLVLHLEV [EXOC4]", "MEAS_VALUE": 0.04}
{"BINDER": "GVAASDFIRSLDHCGDLALEGVFSHK [NLRC4]", "MEAS_VALUE": 0.02}
{"BINDER": "CGEWTRRSLHDRVLGRQLILPTDKGV [FAM149A]", "MEAS_VALUE": 0.72}
{"BINDER": "RMIVDCVSSHDKKTGDGAKTFIIFLC [BBS10]", "MEAS_VALUE": 0.08}

Supply measured SPOT signal as a fraction of Bim BH3's signal on the same receptor and array of KNIAGALAFWMANALELLNFIKQDRD [MLLT4] in your reply.
0.02

Supply measured SPOT signal as a fraction of Bim BH3's signal on the same receptor and array of PSECETLGSNDGHNADLLNENNILAK [ZFP90] in your reply.
0.04
